- ASSAY_REMARKS: Oral bioavailability in mouse at 50 mg/kg measured upto 24 hrs by LC-MS/MS analysis
- Type: ADME, organism-based
- EXPERIMENTAL_CONTEXT: in vivo

COMPOUND_STRUCTURE | bioavailability / %
COc1cc2c(NC3CCN(C(C)C)CC3)nc(C#N)nc2cc1OCCCN1CCOCC1 | 27.3

* * *

- MEASUREMENT_TARGET: UniProt O96028
- Sequence (O96028 whole entry): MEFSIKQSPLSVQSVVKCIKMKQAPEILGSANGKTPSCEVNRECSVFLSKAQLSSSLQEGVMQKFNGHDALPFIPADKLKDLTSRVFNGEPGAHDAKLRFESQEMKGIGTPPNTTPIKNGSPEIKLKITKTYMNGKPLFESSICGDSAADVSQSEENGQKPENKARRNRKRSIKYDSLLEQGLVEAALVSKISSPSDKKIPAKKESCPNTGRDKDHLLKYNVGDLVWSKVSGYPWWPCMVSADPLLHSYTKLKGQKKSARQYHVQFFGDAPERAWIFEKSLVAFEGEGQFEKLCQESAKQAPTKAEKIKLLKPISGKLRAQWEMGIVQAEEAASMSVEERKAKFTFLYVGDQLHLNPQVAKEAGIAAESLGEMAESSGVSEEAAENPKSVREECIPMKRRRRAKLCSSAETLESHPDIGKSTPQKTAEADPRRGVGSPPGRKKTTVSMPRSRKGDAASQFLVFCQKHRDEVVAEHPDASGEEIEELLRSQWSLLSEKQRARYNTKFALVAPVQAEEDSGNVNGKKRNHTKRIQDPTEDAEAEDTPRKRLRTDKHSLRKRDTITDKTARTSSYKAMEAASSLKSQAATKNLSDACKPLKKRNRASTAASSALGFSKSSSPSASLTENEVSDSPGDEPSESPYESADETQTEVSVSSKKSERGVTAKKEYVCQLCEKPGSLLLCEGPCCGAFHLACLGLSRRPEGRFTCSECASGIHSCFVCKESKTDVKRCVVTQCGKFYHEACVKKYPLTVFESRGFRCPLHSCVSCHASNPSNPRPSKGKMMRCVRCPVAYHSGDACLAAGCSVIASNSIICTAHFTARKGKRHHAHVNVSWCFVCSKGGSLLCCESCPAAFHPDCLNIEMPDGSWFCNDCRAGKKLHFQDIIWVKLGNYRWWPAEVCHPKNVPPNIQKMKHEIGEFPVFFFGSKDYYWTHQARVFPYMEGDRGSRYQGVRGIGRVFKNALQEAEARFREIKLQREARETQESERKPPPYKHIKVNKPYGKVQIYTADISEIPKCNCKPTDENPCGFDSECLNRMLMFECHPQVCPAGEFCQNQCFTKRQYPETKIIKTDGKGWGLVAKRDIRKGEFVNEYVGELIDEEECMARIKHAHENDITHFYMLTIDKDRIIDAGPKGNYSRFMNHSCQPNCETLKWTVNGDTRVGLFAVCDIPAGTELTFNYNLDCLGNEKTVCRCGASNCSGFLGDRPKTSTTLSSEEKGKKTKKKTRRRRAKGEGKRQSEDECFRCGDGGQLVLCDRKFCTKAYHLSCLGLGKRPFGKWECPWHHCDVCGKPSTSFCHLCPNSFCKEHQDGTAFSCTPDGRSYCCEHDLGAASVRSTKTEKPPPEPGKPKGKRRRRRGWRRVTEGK
- ASSAY_REMARKS: Inhibition of recombinant human NSD2 (941 to 1240 residues) using unmethylated histone H3 as substrate incubated for 40 mins in the presence of SAM and nucleosomes by AlphaLISA method
Ranges used to classify IC50: low bin: < 600 nM; mid bin: ≥ 600 nM and < 2000 nM; high bin: ≥ 2000 nM

COMPOUND_STRUCTURE | MEASUREMENT_TARGET | QUALITATIVE_LABEL
COc1cc2nc(C#N)nc(Nc3ccc(N4CCN(C)CC4)cc3)c2cc1OC | UniProt O96028 | high bin
CCCN1CCC(Nc2nc(C#N)nc3cc(OC)c(OC)cc23)CC1 | UniProt O96028 | low bin
COc1cc2nc(N)nc(NC3CCN(Cc4ccccc4)CC3)c2cc1OC | UniProt O96028 | mid bin
CNc1nc(NC2CCN(Cc3ccccc3)CC2)c2cc(OC)c(OC)cc2n1 | UniProt O96028 | mid bin
COc1cc2nc(C#N)nc(NC3CCCCC3)c2cc1OC | UniProt O96028 | high bin
COc1cc2nc(C#N)nc(NC3CCN(C4CCCCC4)CC3)c2cc1OC | UniProt O96028 | mid bin
COc1cc2nc(C#N)nc(OC3CCN(C)CC3)c2cc1OC | UniProt O96028 | high bin
COc1ccc2c(NC3CCN(C(C)C)CC3)nc(C#N)nc2c1 | UniProt O96028 | low bin
COc1cc2nc(N3CCCN(C)CC3)nc(NC3CCN(Cc4ccccc4)CC3)c2cc1OC | UniProt O96028 | mid bin
COc1cc2c(NC3CCN(C(C)C)CC3)nc(C#N)nc2cc1OCCCN1CCC(F)(F)C1 | UniProt O96028 | low bin
COc1cc2c(NC3CCN(C(C)C)CC3)nc(C#N)nc2cc1O | UniProt O96028 | low bin

This collection of values is drawn from ChEMBL document CHEMBL5614426.
